Data origin, for the record: patent US10479780B2

biological target: human Yes1 enzyme (Homo sapiens); construct: made in house; experiment: Yes1 enzyme inhibitory activity (time-resolved fluorometry, biotinylated peptide phosphorylation); assay type: biochemical; conditions: biotinylated peptide phosphorylation, read-out: YES_IC50
Sequence (P07947 whole entry): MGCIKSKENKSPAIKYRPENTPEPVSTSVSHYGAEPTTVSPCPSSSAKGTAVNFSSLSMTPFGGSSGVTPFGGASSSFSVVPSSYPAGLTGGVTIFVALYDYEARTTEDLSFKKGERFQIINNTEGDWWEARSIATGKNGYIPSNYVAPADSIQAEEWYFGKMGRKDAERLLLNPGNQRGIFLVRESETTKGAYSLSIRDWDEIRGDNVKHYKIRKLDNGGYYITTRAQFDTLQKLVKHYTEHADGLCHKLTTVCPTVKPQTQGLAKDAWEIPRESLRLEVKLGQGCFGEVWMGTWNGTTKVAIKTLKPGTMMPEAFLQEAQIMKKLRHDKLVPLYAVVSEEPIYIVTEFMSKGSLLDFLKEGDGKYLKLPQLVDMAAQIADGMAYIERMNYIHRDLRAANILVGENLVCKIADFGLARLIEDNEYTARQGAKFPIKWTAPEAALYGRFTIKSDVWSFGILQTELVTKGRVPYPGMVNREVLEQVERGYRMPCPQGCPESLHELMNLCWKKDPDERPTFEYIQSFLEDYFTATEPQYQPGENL
Reported IC50 values for the following compounds.
Write down the numeric answer in nM and omit the unit.

mol=Cc1cc(Oc2ccccc2F)ncc1-n1ncc(C(=O)c2cc3cc(N(CCN4CCOCC4)S(C)(=O)=O)c(O)cc3[nH]2)c1N measuredon="human Yes1 enzyme (Homo sapiens)" unitinfo=nM obsvalue=1.4

Query block: # lookup: IC50 of `Cc1cc(Oc2ccccc2F)ccc1-n1ncc(C(=O)c2cc3cc(OC(F)F)c(N4C(=O)NC(C)(C)C4=O)cc3[nH]2)c1N`
Result block: 0.63

Query block: Would you kindly repeat that for `Cc1cc(Oc2ccccc2F)ccc1-n1ncc(C(=O)c2cc3cc(F)c(N4C(=O)CNC4=O)cc3[nH]2)c1N` ?
Result block: 0.54
